# SYSTEM TESTED: Aldose reductase isolated from bovine lens (Bos taurus, UniProt P16116)
# Construct: Aldose reductase was isolated from bovine lens
# TEST SUMMARY: Inhibition of aldose reductase isolated from bovine lens (Lineweaver-Burk)
# MEASUREMENT CONDITIONS: procedure of Lineweaver and Burk, read-out: Amount which inhibits the maximum velocity of the aldose reductase activity by 50% (IC50)
VALUE TYPE: IC50 (µM)
One number for each entry, in µM.

Batch lookup, IC50 per entry.
1. O=C(O)CN1C(=O)c2cccc3cccc(c23)C1=O [Ay-22,284]
2. O=C1C(=O)N2CCCc3cccc1c32 [AHR-5191]

[90, 80]
